target: N-terminally FLAG-tagged PARP2 (amino acids 1-583) (Homo sapiens); construct: N-terminally FLAG-tagged PARP2 (amino acids 1-583); assay: PARP2 probe displacement HTRF assay; assay type: binding; conditions: binned Kd, PARP2 probe displacement HTRF
Sequence (Q9UGN5 whole entry, the tested form may be a part): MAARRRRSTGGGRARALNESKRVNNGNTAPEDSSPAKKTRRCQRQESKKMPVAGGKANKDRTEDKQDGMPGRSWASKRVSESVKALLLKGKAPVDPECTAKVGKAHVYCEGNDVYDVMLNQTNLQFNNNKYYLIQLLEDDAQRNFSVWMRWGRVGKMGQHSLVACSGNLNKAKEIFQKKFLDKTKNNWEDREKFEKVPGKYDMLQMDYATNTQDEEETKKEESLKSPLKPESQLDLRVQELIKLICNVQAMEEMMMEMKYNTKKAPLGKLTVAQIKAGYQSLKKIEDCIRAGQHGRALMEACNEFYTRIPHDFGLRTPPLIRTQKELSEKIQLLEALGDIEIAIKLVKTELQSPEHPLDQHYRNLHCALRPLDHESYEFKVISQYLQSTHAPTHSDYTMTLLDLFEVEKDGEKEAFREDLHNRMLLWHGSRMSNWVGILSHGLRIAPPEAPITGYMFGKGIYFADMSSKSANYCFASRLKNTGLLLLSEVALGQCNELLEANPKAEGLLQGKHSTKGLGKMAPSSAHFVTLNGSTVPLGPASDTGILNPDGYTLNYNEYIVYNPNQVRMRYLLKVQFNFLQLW
Recorded Kd for the following molecules
Experimental Endpoint: Kd

1) CNC(=O)c1ccc(N2CCC(N3CCCC(c4nc5c(Cl)cccc5c(=O)[nH]4)C3)CC2)cn1 (single isomer, unassigned) [Compound 44b] = 1000 to 10000 nM
2) CNC(=O)c1ccc(N2CCC(N3CCCC(c4nc5cc(F)ccc5c(=O)[nH]4)C3)CC2)cn1 (single isomer, unassigned) [Compound 108a] = > 10000 nM
3) CNC(=O)c1ccc(N2CCC(N3CCC(c4cc5ccc(F)cc5c(=O)[nH]4)C3)CC2)nn1 (single isomer, unassigned) [Compound 197b] = 1000 to 10000 nM
4) CNC(=O)c1ccc(N2CCC(N3CCC(c4cc5ccc(F)cc5c(=O)[nH]4)C3)CC2)c(C)n1 (single isomer, unassigned) [Compound 196a] = 100 to 1000 nM
5) CNC(=O)c1ccc(N2CCC(N3CCCC(c4nc5sc(C)c(C)c5c(=O)[nH]4)C3)CC2)cn1 (single isomer, unassigned) [Compound 199a] = 100 to 1000 nM
6) CNC(=O)c1ccc(N2CCC(N3CCC(c4nc(C)cc(=O)[nH]4)C3)CC2)cn1 (single isomer, unassigned) [Compound 97a] = > 10000 nM
7) CNC(=O)c1ccc(N2CCC(N3CCC(c4nc5ccc(F)cc5c(=O)[nH]4)C3)CC2)cn1 (single isomer, unassigned) [Compound 64b] = 100 to 1000 nM
8) CNC(=O)c1ccc(N2CCC(N3CCC(c4nc5ccccc5c(=O)[nH]4)C3)CC2)c(C)n1 (single isomer, unassigned) [Compound 125b] = 1000 to 10000 nM
9) CNC(=O)c1ccc(N2CCC(N3CCCC(C)(c4nc5ccccc5c(=O)[nH]4)C3)CC2)cn1 (single isomer, unassigned) [Compound 66b] = > 10000 nM
10) CNC(=O)c1ccc(N2CCC(N3CCC(c4nc5onc(C(F)(F)F)c5c(=O)[nH]4)C3)CC2)cn1 (single isomer, unassigned) [Compound 176a] = > 10000 nM
11) CNC(=O)c1ccc(N2CCC(N3CCC(c4nc5c(C)cn(C)c5c(=O)[nH]4)C3)CC2)cn1 (racemic) = 100 to 1000 nM
12) CNC(=O)c1ccc(N2CCC(C(=O)N3CCC(c4nc5ccccc5c(=O)[nH]4)CC3)CC2)cn1 = > 10000 nM
13) CNC(=O)c1ccc(N2CCC(N3CCC(c4nc5ccccc5c(=O)[nH]4)C3)CC2)c(C(F)(F)F)n1 (single isomer, unassigned) [Compound 139a] = 1000 to 10000 nM
14) N#Cc1ccc(N2CCC(N3CCC(c4nc5ccccc5c(=O)[nH]4)C3)CC2)cn1 (single isomer, unassigned) [Compound 69b] = 100 to 1000 nM
15) CNC(=O)c1ccc(N2CCC(N3CCCC(c4ccc(OC)c(=O)[nH]4)C3)CC2)cn1 (single isomer, unassigned) [Compound 147a] = > 10000 nM
16) CNC(=O)c1ccc(N2CCC(N3CCOC(c4nc5ccccc5c(=O)[nH]4)C3)CC2)cn1 (single isomer, unassigned) [Compound 58b] = > 10000 nM
17) CNC(=O)c1ccc(N2CCC(N3CCC(c4cc5cccc(F)c5c(=O)[nH]4)C3)CC2)c(C)n1 (single isomer, unassigned) [Compound 206b] = 1000 to 10000 nM
18) CNC(=O)c1ccc(N2CCC(N3CCC(c4cc5cccc(F)c5c(=O)[nH]4)C3)CC2)cn1 (racemic) [Compound 136rac] = 10 to 100 nM
19) CNC(=O)c1ccc(N2CCC(N3CCCC(c4nc5ccccc5c(=O)[nH]4)C3)CC2)cc1 (single isomer, unassigned) [Compound 82a] = 100 to 1000 nM

Recorded values, source patent US20250152585A1.
